These measurements were taken from patent US9505710B2.

Biological target: BoNT/A LC1-429 (Clostridium botulinum)
Sequence (P0DPI1 1-429, added parts left off): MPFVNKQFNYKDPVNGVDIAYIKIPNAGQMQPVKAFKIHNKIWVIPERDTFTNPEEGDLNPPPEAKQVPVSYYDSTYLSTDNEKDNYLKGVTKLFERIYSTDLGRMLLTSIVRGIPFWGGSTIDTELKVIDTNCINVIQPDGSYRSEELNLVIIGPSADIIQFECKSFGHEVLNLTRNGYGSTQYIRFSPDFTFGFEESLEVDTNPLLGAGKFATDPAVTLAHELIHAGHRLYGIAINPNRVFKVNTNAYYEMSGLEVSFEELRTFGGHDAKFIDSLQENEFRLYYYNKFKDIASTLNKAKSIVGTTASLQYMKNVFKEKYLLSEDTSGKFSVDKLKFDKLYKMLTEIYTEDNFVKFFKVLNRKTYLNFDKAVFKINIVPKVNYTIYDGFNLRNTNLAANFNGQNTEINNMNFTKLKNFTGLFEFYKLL
Experiment: biochemical
Details: BoNT/A Ki (nM)
Structures can show the parent of a compound that is named as a salt.
The threshold is 10 nM. Values of Ki beneath it are tagged yes (1); values meeting or exceeding it are tagged no (0).

>>> label("CCCN(CCC)C(=O)c1ccc([C@@H](Cc2ccc(Cl)cc2)[C@@H](CC(=O)NO)OCC)cc1 [Example 4-2]")
"yes (1)"
>>> label("CO[C@H](CC(=O)NO)[C@H](Cc1ccc(F)cc1F)c1ccc(F)cc1F [Example 6-12]")
"no (0)"
>>> label("CO[C@H](CC(=O)NO)[C@H](Cc1ccc(Cl)cc1)c1ccc(Cl)c(Br)c1 [Example 5-1]")
"yes (1)"
>>> label("O=C(C[C@@H](OCC1CC1)[C@H](Cc1ccc(Cl)cc1)c1ccc(F)cc1F)NO [Example 6-17]")
"no (0)"
>>> label("CCO[C@H](CC(=O)NO)[C@H](Cc1ccc(CO)cc1)c1ccc(F)cc1 [Example 1-9]")
"no (0)"
>>> label("CO[C@H](CC(=O)NO)[C@H](Cc1ccc(Cl)cc1)c1cc(F)c(F)c(F)c1F [Example 5-6]")
"yes (1)"
>>> label("CCO[C@H](CC(=O)NO)[C@H](Cc1ccc(Cl)cc1)c1ccc(-c2c(C)nn(C)c2C)cc1 [Example 3-28]")
"yes (1)"
>>> label("CO[C@@H](CC(=O)NO)[C@H](Cc1ccc(F)c(C)c1)c1ccc(Br)cc1 [Example 2-4]")
"no (0)"
>>> label("CO[C@H](CC(=O)NO)[C@H](Cc1ccc(F)cc1)c1ccc(Br)cc1 [Example 1-3]")
"yes (1)"
>>> label("CO[C@H](CC(=O)NO)[C@H](Cc1ccc(Cl)cc1C)c1ccc(F)cc1 [Example 6-4]")
"yes (1)"
>>> label("C=Cc1ccc([C@@H](Cc2ccc(Cl)cc2)[C@@H](CC(=O)NO)OCC)cc1 [Example 3-9]")
"yes (1)"
>>> label("CCO[C@H](CC(=O)NO)[C@H](Cc1ccc(Cl)cc1)c1ccc(CN2CCNCC2)cc1 [Example 3-18]")
"no (0)"
>>> label("CO[C@H](CC(=O)NO)[C@H](Cc1ccc(Cl)cc1)c1ccc(CN2CCCCC2)cc1 [Example 3-20]")
"no (0)"
>>> label("NCCCO[C@H](CC(=O)NO)[C@H](Cc1ccc(Cl)cc1)c1ccc(F)cc1F [Example 6-26]")
"no (0)"
>>> label("CCO[C@H](CC(=O)NO)[C@H](Cc1ccc(Cl)cc1)c1ccc(F)cc1F [Example 6-21, potassium salt]")
"no (0)"

----------
Biological target: BoNT/A LC1-429 (Clostridium botulinum)
Assay: biochemical
Conditions: BoNT/A Ki (nM)
The threshold is 4 nM. Values of Ki beneath it are tagged 1 (yes); values meeting or exceeding it are tagged 0 (no).

>>> label("CCO[C@H](CC(=O)NO)[C@H](Cc1ccc(Cl)cc1)c1ccc(COCOCCOC)cc1")
"0 (no)"
>>> label("CCO[C@H](CC(=O)NO)[C@H](Cc1ccc(Cl)cc1)c1ccc(CN2CCCCC2)cc1")
"0 (no)"
>>> label("CCO[C@H](CC(=O)NO)[C@H](Cc1ccc(Cl)cc1)c1ccc(Br)cc1")
"1 (yes)"
>>> label("CCO[C@H](CC(=O)NO)[C@H](Cc1ccc(Cl)cc1)c1ccc(-c2cncnc2)cc1")
"1 (yes)"
>>> label("CO[C@@H](CC(=O)NO)[C@H](Cc1ccc(F)cc1C)c1ccc(Br)cc1")
"0 (no)"
>>> label("CO[C@H](CC(=O)NO)[C@H](Cc1ccc(Cl)cc1)c1ccc(F)cc1 [Example 3-5]")
"0 (no)"
>>> label("CCO[C@@H](CC(=O)NO)[C@H](Cc1ccc(Cl)cc1)c1ccc(Br)cc1")
"0 (no)"
